All values here come from patent US8114968.

target: human MMP-12 (human) (UniProt P39900); experiment: cell-based or functional assay
Sequence (P39900 106-470 limits assumed): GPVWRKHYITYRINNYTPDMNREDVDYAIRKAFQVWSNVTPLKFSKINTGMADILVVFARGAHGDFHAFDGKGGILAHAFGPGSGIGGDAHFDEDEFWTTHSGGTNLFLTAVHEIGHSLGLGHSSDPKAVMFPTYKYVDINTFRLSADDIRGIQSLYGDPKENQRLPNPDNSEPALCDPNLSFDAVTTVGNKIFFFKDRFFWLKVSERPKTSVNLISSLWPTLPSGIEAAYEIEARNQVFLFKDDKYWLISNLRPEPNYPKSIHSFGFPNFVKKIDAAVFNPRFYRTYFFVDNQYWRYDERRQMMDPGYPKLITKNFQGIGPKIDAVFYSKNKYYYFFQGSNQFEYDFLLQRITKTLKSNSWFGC
Form field: % of activity left with 100 nM in assay 04 Oct. 2006 (one value per entry).
Response body: numeric value in %, unit text excluded.

Looking up 539B-M0041-B05 (Fab, V domains shown) VH: EVQLLESGGGLVQPGGSLRLSCAASGFTFSEYPMYWVRQAPGKGLEWVSVIYPSGGWTDYADSVKGRFTISRDNSKNTLYLQMNSLRAEDTAVYYCARMAVTGGSRFDYWGQGTLVTVSS VL: DIQMTQSPSSLSASVGDRVSITCRASQNINSYLNWYQQKVGKAPKLLIFGAYTLHSGAPSRFSGSGSGTDFTLTISSLQPEDVATYYCQQTYTSYSFAQGTKLEIK , I see its % of activity left with 100 nM in assay 04 Oct. 2006 listed as 35.1

Value of measured % of activity left with 100 nM in assay 04 Oct. 2006 for the entry 539B-M0041-G01 (Fab, V domains shown) VH: EVQLLESGGGLVQPGGSLRLSCAASGFTFSYYPMAWVRQAPGKGLEWVSYISSSGGLTTYADSVKGRFTISRDNSKNTLYLQMNSLRAEDTAVYYCARSPTYYDFWSGYWAGIFDYWGQGTLVTVSS VL: DIQMTQSPSSLSASVGDRVTITCRASQSISYFLNWYQQKPGKAPKLLIYAASTLQGGVPSRFRGSGSGTDFTLTISSLQPEDFATYYCQHSYSTPPITFGPGTKVDIK : 109

539B-M0042-B06 (Fab, V domains shown) VH: EVQLLESGGGLVQPGGSLRLSCAASGFTFSFYHMEWVRQAPGKGLEWVSSISPSGGHTDYADSVKGRFTISRDNSKNTLYLQMNSLRAEDTAVYYCASLLSGTWGQGTLVTVSS VL: DIQMTQSPDTLSLSPGERATLSCRASQTISSTFLAWYQQKPGQAPRLLIYGASTRAAGIPDRFIGSGSGTDFTLTISSLEPEDSAVYYCQQYDRSPTFGGGTKVEIK yielded % of activity left with 100 nM in assay 04 Oct. 2006 of 53.6

Quick note, % of activity left with 100 nM in assay 04 Oct. 2006 for 539B-M0034-C04 (Fab, V domains shown) VH: EVQLLESGGGLVQPGGSLRLSCAASGFTFSEYPMYWVRQAPGKGLEWVSVIYPSGGWTDYADSVKGRFTISRDNSKNTLYLQMNSLRAEDTAVYYCARMAVTGGSRFDYWGQGTLVTVSS VL: DIQMTQSPSSLSASVGDRVSITCRASQNINSYLNWYQQKVGKAPKLLIFGAYTLHSGAPSRFSGSGSGTDFTLTISSLQPEDVATYYCQQTYTSYSFAQGTKLEIK landed at 38.6

Record summary for 539B-M0016-D01 (Fab, V domains shown) VH: EVQLLESGGGLVQPGGSLRLSCAASGFTFSEYNMPWVRQAPGKGLEWVSYIYSSGGSTEYADSVKGRFTISRDNSKNTLYLQMNSLRAEDMAVYYCAKDLWEDSSTWGYGMDVWGQGTTVTVSS VL: QSELTQPPSVSVSPGQTATITCSGDVSVHKSFCWYQQRPGQSPVLVIYQIDKRPSGVPERFSGSISGTTATLTISGTQATDEADYYCQGWDSTTYYVFGTGTKVTVL : reported % of activity left with 100 nM in assay 04 Oct. 2006 = 48.1

So for 539B-M0009-H08 (Fab, V domains shown) VH: EVQLLESGGGLVQPGGSLRLSCAASGFTFSMYWMFWVRQAPGKGLEWVSSISSSGGHTFYADSVKGRFTISRDNSKNTLYLQMNSLRAEDTAVYYCARGSYSGYDPFDYWGRGTLVTVSS VL: QYELTQPPALSVAPGETATITCGGDKIGRKSVNWYQQKAGQAPVLVIFYDNDRPSGITGRFSGSNSGNSATLTISRVEAGDEADFYCQVWGPNDFPLFGGGTKLTVL , the logged % of activity left with 100 nM in assay 04 Oct. 2006 turned out to be 103

Record summary for 539B-M0039-F01 (Fab, V domains shown) VH: EVQLLESGGGLVQPGGSLRLSCAASGFTFSRYWMDWVRQAPGKGLEWVSGIYPSGGYTLYADSVKGRFTISRDNSKNTLYLQMNSLRAEDTAVYYCARHGDYMDVWGKGTTVTVSS VL: NIQMTQSPSSVSASVGDRVTITCRASQDINYWLAWYQQKPGKAPKLLIYAASSLQSGVPSRFSGSGSGTDFTLTISSLQPEDFATYYCQRANSFPYTFGQGTKLEIK : reported % of activity left with 100 nM in assay 04 Oct. 2006 = 69.4
